# assay-target: E. coli fabI (Escherichia coli, UniProt P0AEK4)
# Construct: made in house; host or cells: E. coli BL21(DE3)
# Sequence (P0AEK4 whole entry): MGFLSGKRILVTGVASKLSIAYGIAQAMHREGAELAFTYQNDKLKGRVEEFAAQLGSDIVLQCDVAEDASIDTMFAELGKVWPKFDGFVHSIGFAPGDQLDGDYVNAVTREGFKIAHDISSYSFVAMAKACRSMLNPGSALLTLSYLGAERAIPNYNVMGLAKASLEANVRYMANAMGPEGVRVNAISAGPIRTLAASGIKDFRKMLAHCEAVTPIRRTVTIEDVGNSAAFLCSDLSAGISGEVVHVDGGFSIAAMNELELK
# assay-notes: fabI kinetic assay (NADH absorption at 340 nm, crotonoyl-CoA substrate)
# Assay type: biochemical
# study-conditions: purified E. coli fabI 3 ug/ml; NADH 200 uM; crotonoyl-CoA 0.8 mM; pH 7.5; read-out: IC50
# Method: In order to perform more detailed kinetic assays on the disclosed compounds, additional purifed fabI was needed. […] A 2 ul volume of each compound to be tested was loaded into each well, followed by 30 ul Buffer A (sodium phosphate pH7.5, 100 mM; DTT, 1 mM; fabI, 5 ug/ml, obtained as described below). […] The reaction was monitored for 5.5 minutes on a spectrometer by measuring absorption at 340 nm. […]
observation-type: pIC50
Worth noting: pIC50 values are minus log10 of concentrations stated in mol/L.

Query: pIC50 of N#Cc1c(-c2cccs2)cc(-c2cccs2)nc1SCCC(=O)O [P] on E. coli fabI (Escherichia coli, UniProt P0AEK4)?
Result: 4.06

----------
# Test system: methicillin resistant Staphyloccocus aureus (MRSA, strain ATCC 700699)
# assay-notes: MIC against methicillin resistant S. aureus (NCCLS dilution)
# Assay type: cell-based
# study-conditions: Staphylococcus aureus, serial two-fold dilutions, 96-well
In this section we review reported MIC values for a set of molecules.
Enter your answer as a number in µg/mL; do not include the unit.

Some molecules with known MIC results, for comparison:
molecule | assay-result
N#Cc1c(-c2cccs2)cc(-c2cccs2)nc1SCc1cccc(C(=O)O)c1 | 1.5
N#Cc1c(-c2cccs2)cc(-c2cccs2)nc1SCCc1ccc(C(=O)O)cc1 | 0.75
COc1ccc(-c2cc(-c3ccco3)c(C#N)c(SCc3ccc(C(=O)O)cc3)n2)cc1 | 8
N#Cc1c(-c2cccs2)cc(-c2cccs2)nc1SC(C(=O)O)c1ccccc1 (centres unmarked) | 32
N#Cc1c(-c2cccs2)cc(-c2cccs2)nc1SCc1ccc(CC(=O)O)cc1 | 4

Query: Which MIC is reported for this molecule? CC(Sc1nc(-c2cccs2)cc(-c2cccs2)c1C#N)c1ccc(C(=O)O)cc1 (centres unmarked)
Result: 0.75

Query: Also check N#Cc1c(-c2cccs2)cc(-c2cccs2)nc1SCc1ccc(C(=O)O)cc1
Result: 2

----------
# assay-target: E. coli fabI (Escherichia coli)
# Construct: made in house; host or cells: E. coli BL21(DE3)
# assay-notes: fabI kinetic assay (NADH absorption at 340 nm, crotonoyl-CoA substrate)
# Assay type: biochemical
Catalogue of molecules with associated IC50
The answer should read as a number with its unit following.

Illustrative cases are given below, each with its answer.
molecule | assay-result
N#Cc1c(-c2cccs2)cc(-c2cccs2)nc1SCc1ccc(CC(=O)O)cc1 [H] | 25 µM
N#Cc1c(-c2cccs2)cc(-c2cccs2)nc1SCc1ccc(C(=O)O)cc1 [Compound A] | 4 µM
CC(C)NC(=O)CSc1nc(-c2cccs2)cc(-c2ccc(F)cc2)c1C#N [B] | 12 µM

Query: IC50 of N#Cc1c(-c2ccc(Cl)cc2)cc(-c2cccs2)nc1SCC(N)=O [Q] on E. coli fabI (Escherichia coli)?
Result: 33 µM

Query: Another: CC(C)NC(=O)CSc1nc(-c2cccs2)cc(-c2ccc(Cl)cc2)c1C#N [N]
Result: 46 µM
